# Experimental Target: Cannabinoid receptor 2 (Homo sapiens)
# Sequence (P34972 whole entry): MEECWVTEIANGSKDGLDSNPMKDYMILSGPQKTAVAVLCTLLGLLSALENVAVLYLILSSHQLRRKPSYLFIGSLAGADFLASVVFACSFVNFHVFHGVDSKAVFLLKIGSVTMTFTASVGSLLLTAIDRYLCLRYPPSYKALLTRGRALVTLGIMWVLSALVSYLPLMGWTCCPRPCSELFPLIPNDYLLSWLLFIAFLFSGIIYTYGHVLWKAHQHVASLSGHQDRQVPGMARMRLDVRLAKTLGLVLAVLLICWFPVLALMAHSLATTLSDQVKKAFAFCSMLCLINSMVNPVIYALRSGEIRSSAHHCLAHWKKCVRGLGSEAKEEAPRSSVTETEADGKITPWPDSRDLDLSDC
Reported Property: EC50 (nM)

- CCOc1ccc(Cc2nc3cc(C(=O)NCCCCNc4c5c(nc6ccccc46)CCCC5)ccc3n2CCC(C)C)cc1: 911
